Entries and their Percent Effect
Molecular target: Sialic acid-binding Ig-like lectin 9 (Homo sapiens) (UniProt Q9Y336)
Sequence (Q9Y336 whole entry): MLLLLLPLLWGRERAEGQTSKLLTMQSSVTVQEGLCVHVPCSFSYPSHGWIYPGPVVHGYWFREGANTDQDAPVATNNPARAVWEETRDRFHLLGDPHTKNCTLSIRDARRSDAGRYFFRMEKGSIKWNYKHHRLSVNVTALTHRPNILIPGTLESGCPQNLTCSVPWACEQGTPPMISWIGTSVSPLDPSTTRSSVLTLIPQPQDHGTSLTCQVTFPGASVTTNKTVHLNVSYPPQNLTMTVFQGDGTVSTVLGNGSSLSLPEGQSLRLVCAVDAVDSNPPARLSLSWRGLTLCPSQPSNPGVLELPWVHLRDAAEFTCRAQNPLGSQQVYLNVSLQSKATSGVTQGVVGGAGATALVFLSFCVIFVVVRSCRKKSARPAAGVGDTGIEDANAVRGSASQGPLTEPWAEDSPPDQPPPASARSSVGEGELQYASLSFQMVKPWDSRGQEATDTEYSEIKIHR
Test: Hs-Siglec9 ALPHAscreen SOP 20170721
Set-up: scale not given: direction of the effect not stated beside the values
Conditions: 10 µM

molecule: Cc1ccc(C2CSCCN2C(=O)C2=CCCC2)o1 (stereo unspecified)
Percent Effect / %: 26.9
//
molecule: COc1ccc(C2C3=C(COC3=O)Nc3[nH]nc(C)c32)cc1OC (stereo unspecified)
Percent Effect / %: -1.62
//
molecule: CNC(=O)CCc1cc(C)nc(C2CCCN2)c1 (stereo unspecified)
Percent Effect / %: 1.63
//
molecule: CC(C)N1CC(C(=O)NCCc2csc(-c3ccncc3)n2)CC1=O (stereo unspecified)
Percent Effect / %: -0.897
//
molecule: CC(C)c1nc2c(n1C)CCN(CC(=O)Nc1ccc(Cl)cn1)C2
Percent Effect / %: 6.83
//
molecule: CC(C)(C)c1nnc(CN2CCCC2c2noc(C3CC3)n2)o1 (stereo unspecified)
Percent Effect / %: -0.506
//
molecule: COc1ccc(CNC2CCN(CCc3ccncc3)CC2)cc1O
Percent Effect / %: 9.91
//
molecule: C1CC1c1nsc(N2CCN(C3CC3)CC2)n1
Percent Effect / %: 8.66
//
molecule: COC(C(=O)N1CCCN(Cc2cscn2)CC1)c1ccccc1 (stereo unspecified)
Percent Effect / %: -3.88
//
molecule: CCc1nc2n(n1)CC(NCC(=O)Nc1nccs1)CC2 (stereo unspecified)
Percent Effect / %: -5.43
//
molecule: CNC(=O)c1nc2c(s1)CCN(C(=O)Cc1ccc(OC)cc1)CC2
Percent Effect / %: -1.04
//
molecule: CCOCCCNC(=O)c1cc(C(C)C)nc(N2CCCCCC2)n1
Percent Effect / %: -7.72
//
molecule: O=C(c1ccccn1)N1CCCC(c2nccn2Cc2ccncc2)C1 (stereo unspecified)
Percent Effect / %: 0.902
//
molecule: O=C([C@@H]1C[C@@H]2CCN(CCc3ccccc3)C[C@H]2O1)N1CCCC1
Percent Effect / %: -9.77
//
molecule: COCCN1CCC(NCc2ccc(C#N)cc2)C1 (stereo unspecified)
Percent Effect / %: 8.39
//
molecule: Cc1ccc(CN2CC(C(=O)Nc3ccccc3)C3(CCOCC3)C2)s1 (stereo unspecified)
Percent Effect / %: 0.774

----------
Molecular target: Ubiquitin-activating enzyme e1, putative (Leishmania donovani (strain BPK282A1))
Sequence (whole entry): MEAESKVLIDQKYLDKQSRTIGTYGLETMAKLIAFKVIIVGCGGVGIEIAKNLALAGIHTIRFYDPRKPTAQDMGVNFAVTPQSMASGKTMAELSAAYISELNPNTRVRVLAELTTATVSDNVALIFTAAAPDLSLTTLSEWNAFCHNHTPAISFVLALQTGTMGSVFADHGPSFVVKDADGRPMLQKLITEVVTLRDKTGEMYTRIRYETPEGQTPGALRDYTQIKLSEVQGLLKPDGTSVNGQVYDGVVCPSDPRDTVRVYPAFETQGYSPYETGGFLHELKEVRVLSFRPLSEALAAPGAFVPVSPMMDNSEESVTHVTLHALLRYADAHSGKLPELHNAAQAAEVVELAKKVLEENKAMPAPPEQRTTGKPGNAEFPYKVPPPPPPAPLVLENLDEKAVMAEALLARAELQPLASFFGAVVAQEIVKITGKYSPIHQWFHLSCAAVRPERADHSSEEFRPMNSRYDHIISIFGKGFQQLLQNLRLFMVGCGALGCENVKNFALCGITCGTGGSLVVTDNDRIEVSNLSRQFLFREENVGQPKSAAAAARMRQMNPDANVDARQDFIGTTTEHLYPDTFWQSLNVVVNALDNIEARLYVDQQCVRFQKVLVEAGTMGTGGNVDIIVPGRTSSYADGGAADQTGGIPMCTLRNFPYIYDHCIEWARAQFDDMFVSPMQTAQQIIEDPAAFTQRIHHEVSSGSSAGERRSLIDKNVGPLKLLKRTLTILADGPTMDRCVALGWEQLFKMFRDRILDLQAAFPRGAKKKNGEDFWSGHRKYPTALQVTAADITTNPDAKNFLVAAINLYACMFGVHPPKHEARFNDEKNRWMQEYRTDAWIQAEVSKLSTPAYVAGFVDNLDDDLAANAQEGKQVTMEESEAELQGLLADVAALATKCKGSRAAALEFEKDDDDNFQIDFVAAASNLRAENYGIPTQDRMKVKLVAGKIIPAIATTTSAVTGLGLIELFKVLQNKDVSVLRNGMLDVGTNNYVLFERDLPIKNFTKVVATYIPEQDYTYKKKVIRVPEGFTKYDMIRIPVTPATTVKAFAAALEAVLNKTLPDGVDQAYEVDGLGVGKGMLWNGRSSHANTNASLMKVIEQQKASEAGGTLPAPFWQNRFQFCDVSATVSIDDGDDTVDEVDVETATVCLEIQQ
Assay: Leishmania donovani Ubiquitin Activating Enzyme (LdE1)
Format: functional
Design: scale not given: direction of the effect not stated beside the values
Settings: 30 µM
Measured potencies and affinities stand elsewhere.
Listed next: entries and their corresponding Percent Effect.
parameter: Percent Effect (%)

compound: Cc1cnn(CC2CN(Cc3nc(N)c4ccccc4n3)CCO2)c1 (centres undefined)
parameter: Percent Effect
unit_name: %
value_reported: 13
--
compound: COc1ccc(C(=O)NS(=O)(=O)c2cncc(Br)c2)cc1OC
parameter: Percent Effect
unit_name: %
value_reported: -5.41
--
compound: CCCS(=O)(=O)N1CCOCC2(CCN(c3ccccn3)C2)C1 (centres undefined)
parameter: Percent Effect
unit_name: %
value_reported: 1.33
--
compound: Cc1ccc([C@]2(O)CC[C@H]3CN(Cc4cc(C)c(O)c(C)c4)C[C@H]32)nc1
parameter: Percent Effect
unit_name: %
value_reported: 6.76

----------
Percent Effect for assorted compounds
Target: Protein translocase subunit SecA (Escherichia coli (strain K12))
Experiment: Assay to Identify E. coli SecA ATPase Inhibitors
Type: functional
Design: scale not given: direction of the effect not stated beside the values
Conditions: 30 µM
Measured potencies and affinities stand elsewhere.
parameter: Percent Effect (%)

compound: Cc1ccc(C(=O)O)cc1S(=O)(=O)Nc1nn(-c2ccccc2)cc1C
parameter: Percent Effect
unit_name: %
value_reported: -5.95
//
compound: CCC(C)NC(=O)Cc1c(C)nc2c(c1C)c(=O)[nH]n2C (stereo not given)
parameter: Percent Effect
unit_name: %
value_reported: 0.22
//
compound: O=C(COc1cccc2c1CCC2=O)NCc1ccccc1F
parameter: Percent Effect
unit_name: %
value_reported: -2.77
//
compound: CN1CCC(c2cccc(Cc3ccc(F)cc3)n2)CC1
parameter: Percent Effect
unit_name: %
value_reported: -4.16
//
compound: CC(NC(=O)N(C)Cc1ccsc1)c1ccc2c(c1)CCC(=O)N2 (stereo not given)
parameter: Percent Effect
unit_name: %
value_reported: -0.422
//
compound: CSc1ccc(S(=O)(=O)N2CCCCC2CCNC(C)=O)cc1 (stereo not given)
parameter: Percent Effect
unit_name: %
value_reported: 0.287
//
compound: Cc1nn2c(N3CCC(O)C3)cc(-c3ccccc3)nc2c1C (stereo not given)
parameter: Percent Effect
unit_name: %
value_reported: -2.08
//
compound: CC(C)(C)OC(=O)N1CCN(C(=O)c2sccc2C2CC2)CC1
parameter: Percent Effect
unit_name: %
value_reported: -1.99
//
compound: CCC1=N[C@@]2(CC[C@@H]3CN(C(=O)Nc4ccc(F)cc4)C[C@@H]32)C(=O)N1
parameter: Percent Effect
unit_name: %
value_reported: -5.91
//
compound: c1csc(-c2nc(CNC3CCc4ncnn4C3)co2)c1 (stereo not given)
parameter: Percent Effect
unit_name: %
value_reported: -3.96
//
compound: O=C(NCCCN1CCOCC1)Nc1cnc2cc(Cl)ccc2c1O
parameter: Percent Effect
unit_name: %
value_reported: 0.589
//
compound: Cc1cccc(CN2CCC3(CCCN(C(=O)c4ccsc4)C3)C2=O)n1 (stereo not given)
parameter: Percent Effect
unit_name: %
value_reported: -2.33
//
compound: Cc1ccc(C(=O)N2CCCC(C(=O)N3CCCCC3)C2)c(O)c1 (stereo not given)
parameter: Percent Effect
unit_name: %
value_reported: -7.91
//
compound: CCOc1nnc(CN2CCOC(CNc3cccnn3)C2)s1 (stereo not given)
parameter: Percent Effect
unit_name: %
value_reported: -1.03
//
compound: CC(=O)N1CCCCC1c1nc2c(c(N3CCCCC3)n1)CN(C)CC2 (stereo not given)
parameter: Percent Effect
unit_name: %
value_reported: 0.622
//
compound: O=C(CS(=O)(=O)CC1CCCCC1)NC1CCCCNC1=O (stereo not given)
parameter: Percent Effect
unit_name: %
value_reported: -5.08
//
compound: N#Cc1ccc(OCCNc2cccc(C(=O)N3CCOCC3)c2)cc1
parameter: Percent Effect
unit_name: %
value_reported: -3.6
//
compound: O=C(c1cc(COc2ccc3c(c2)OCO3)[nH]n1)N1CCCC1
parameter: Percent Effect
unit_name: %
value_reported: -4.35
//
compound: Cc1noc(C(C)C)c1C(=O)NS(=O)(=O)c1ccc(Cl)cc1
parameter: Percent Effect
unit_name: %
value_reported: -5.93
//
compound: O=S1(=O)CCCN1Cc1coc(-c2cccs2)n1
parameter: Percent Effect
unit_name: %
value_reported: -1.93
//
compound: CC(C)NS(=O)(=O)c1cc(C(=O)O)cc(-c2ccc(CN(C)C)cc2)c1
parameter: Percent Effect
unit_name: %
value_reported: -8.02
//
compound: Cn1ncc2c(NCCC34CCCN3CCC4)nc(C3CCCC3)nc21
parameter: Percent Effect
unit_name: %
value_reported: -5.81
//
compound: NC(=O)C1(Cc2ccccc2-c2ccccc2)CCCN(CC2CC2)C1 (stereo not given)
parameter: Percent Effect
unit_name: %
value_reported: -0.127
//
compound: O=C(CCN1CCCC1c1cccs1)N1CCc2sccc2C1 (stereo not given)
parameter: Percent Effect
unit_name: %
value_reported: 0.699
//
compound: CC(O)CN(CC(=O)NC(=O)NCC(F)(F)F)c1ccccc1 (stereo not given)
parameter: Percent Effect
unit_name: %
value_reported: -4.64
//
compound: CCCc1nc(CN2CCN(CC(O)c3ccccc3)CC2)no1 (stereo not given)
parameter: Percent Effect
unit_name: %
value_reported: -2.75
//
compound: COc1ccccc1OCCN1CCCC(c2noc(C3CC3)n2)C1 (stereo not given)
parameter: Percent Effect
unit_name: %
value_reported: -3.76
//
compound: CNC(=O)c1cc2c(nc1NCC(C)C)CCN(S(=O)(=O)C1CC1)CC2
parameter: Percent Effect
unit_name: %
value_reported: -6.06
//
compound: O=C(C1CCC1)N1CCN(c2snc3ccccc23)CC1
parameter: Percent Effect
unit_name: %
value_reported: -4.56
//
compound: CS(=O)(=O)N1CCCC12CCCN(S(=O)(=O)c1cc(F)cc(F)c1)C2 (stereo not given)
parameter: Percent Effect
unit_name: %
value_reported: -5.6
//
compound: Cc1cc(C)n(CC2CN(CCOc3cccc(C#N)c3)CCO2)n1 (stereo not given)
parameter: Percent Effect
unit_name: %
value_reported: -6.03
//
compound: Cc1cc(CN2CCC(CNC(=O)c3ccc(O)c(Cl)c3)C2)[nH]n1 (stereo not given)
parameter: Percent Effect
unit_name: %
value_reported: -4.67
//
compound: c1ccc(-n2nnnc2CN2CCCC(Cn3cncn3)C2)cc1 (stereo not given)
parameter: Percent Effect
unit_name: %
value_reported: -1.71
//
compound: Cc1nc[nH]c1CN1C[C@@H]2CC[C@H](C1)N(C(=O)CCc1cnn(C)c1)C2
parameter: Percent Effect
unit_name: %
value_reported: -1.58
//
compound: CCCc1nnsc1C(=O)NCC1CCN(c2ccccn2)CC1
parameter: Percent Effect
unit_name: %
value_reported: -0.329
//
compound: CCN1C(=O)CCC12CCCN(Cc1nccs1)CC2 (stereo not given)
parameter: Percent Effect
unit_name: %
value_reported: -5.45
//
compound: CC1CCN(Cc2cnc(S(=O)(=O)CC3CC3)n2CC2CCCO2)CC1 (stereo not given)
parameter: Percent Effect
unit_name: %
value_reported: -4.08
//
compound: Cc1ncnc2c1CCN(c1cc(C(F)(F)F)ncn1)CC2
parameter: Percent Effect
unit_name: %
value_reported: -2.66
//
compound: O=C(CN1CCCC(Cn2cncn2)C1)NCc1ccco1 (stereo not given)
parameter: Percent Effect
unit_name: %
value_reported: -2.6
//
compound: Cc1nc(C)n(C2CCCN(C(=O)c3cnc[nH]3)C2)n1 (stereo not given)
parameter: Percent Effect
unit_name: %
value_reported: -4.48
